Assay overview: Toxicity in human erythrocytes assessed as hemolytic activity after 24 hrs
Type: cell-based, Erythrocyte
Quick rule for you: EC50 at 24 h under 100 nM gets MET, anything else gets NOT MET.

Enquiry: For C=C/C=C/CCCCCCCCC/C=C/C(O)C(O)C1OC(C(O)C(O)C(=C)CCC(O)C2OC(CC(O)C(O)C(C)CCCC(O)C(O)C(O)C(C)CCC(O)C(O)C(C)CC(O)CCCC(O)CCCC(O)/C=C/CC(O)CO)C(O)C(O)C2O)CC(O)C1O (stereo not given) , is the recorded EC50 at 24 h below the cut-off of 100 nM?
Return: NOT MET

Enquiry: For C=C/C=C/CCCCCCCCCC/C=C/C(O)C(O)C1OC(C(O)C(O)C(=C)CCC(O)C2OC(CC(O)C(O)C(C)CCCC(O)C(O)C(O)C(C)CCC(O)C(O)C(C)CC(O)CCCC(CCCC(O)/C=C/CC(O)CO)OS(=O)(=O)O)C(O)C(O)C2O)CC(O)C1O (stereo not given) , is the recorded EC50 at 24 h below the cut-off of 100 nM?
Return: NOT MET

Enquiry: For C=C(CCC(O)C1OC(CC(O)C(O)C(C)CCCC(O)C(O)C(O)C(C)CCC(O)C(O)C(C)CC(O)CCCC(O)CCCC(O)/C=C/CC(O)CO)C(O)C(O)C1O)C(O)C(O)C1CC(O)C(O)C(C(O)C(O)/C=C/CCCCCCCCC/C=C/C=C/Cl)O1 (stereo not given) , is the recorded EC50 at 24 h below the cut-off of 100 nM?
Return: NOT MET

Enquiry: For C=C/C=C/CCCCCCCCCC/C=C/C(O)C(O)C1OC(C(O)C(O)C(=C)CCC(O)C2OC(CC(O)C(O)C(C)CCCC(O)C(O)C(O)C(C)CCC(O)C(O)C(C)CC(O)CCCC(O)CCCC(O)/C=C/CC(O)CO)C(O)C(O)C2O)CC(O)C1O (stereo not given) , is the recorded EC50 at 24 h below the cut-off of 100 nM?
Return: MET

Enquiry: For C=C(CCC(O)C1OC(CC(O)C(O)C(C)CCCC(O)C(O)C(O)C(C)CCC(O)C(O)C(C)CC(O)CCCC(O)CCCC(O)/C=C/CC(O)CO)C(O)C(O)C1O)C(O)C(O)C1CC(O)C(O)C(C(O)C(O)/C=C/CCCCCCCCCC/C=C/C=C/Cl)O1 (stereo not given) , is the recorded EC50 at 24 h below the cut-off of 100 nM?
Return: MET
